# Test Target: HLA-A*31:01
# Protocol Description: IEDB peptide-MHC binding, purified MHC/direct/fluorescence; filed as Kd, often an IC50 or EC50 that approximates it; bounds were set here for any values at or beyond the usual limits of such assays
# Settings: source organism: Yellow fever virus
pKd: −log10 of the molar value.

>  <Sequence Code>
SCRVKLSAL

>  <Test Target>
HLA-A*31:01

>  <pKd>
≤ 4.70

$$$$
>  <Sequence Code>
GSRAYRNAL

>  <Test Target>
HLA-A*31:01

>  <pKd>
≤ 4.70

$$$$

====

Catalogue of Kd values
# Test Target: HLA-A*02:03
# Protocol Description: IEDB peptide-MHC binding, purified MHC/direct/fluorescence; filed as Kd, often an IC50 or EC50 that approximates it; bounds were set here for any values at or beyond the usual limits of such assays
# Settings: source organism: Zaire ebolavirus
Measured Metric: Kd

>  <Sequence Code>
KRLQILGYL

>  <Test Target>
HLA-A*02:03

>  <Reported Measurement>
≥ 20 µM

$$$$
>  <Sequence Code>
KTNDFAPAW

>  <Test Target>
HLA-A*02:03

>  <Reported Measurement>
≥ 20 µM

$$$$
>  <Sequence Code>
KCNPNLHYW

>  <Test Target>
HLA-A*02:03

>  <Reported Measurement>
≥ 20 µM

$$$$
